Reference for the values: patent US20250382355A1

- assayed_system: Biotinylated CoV2 Spike ECD PreS-AVI protein (SARS-CoV-2, UniProt P0DTC2 14-1208)
- assay_comment: Octet binning; competitor Std-A
Measured binning response, listed per entry.

{"columns": ["binder", "binning response"],
 "data": [
  ["5D7 VHH-Fc (Fc fusion) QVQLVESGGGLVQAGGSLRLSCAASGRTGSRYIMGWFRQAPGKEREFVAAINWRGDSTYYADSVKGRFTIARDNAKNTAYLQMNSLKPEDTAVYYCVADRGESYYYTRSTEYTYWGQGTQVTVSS", 0.28],
  ["8E9 VHH-Fc (Fc fusion) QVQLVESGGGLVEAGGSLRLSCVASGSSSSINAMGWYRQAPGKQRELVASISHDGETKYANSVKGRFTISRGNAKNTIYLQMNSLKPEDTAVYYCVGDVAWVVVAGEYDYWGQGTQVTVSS", 0.36],
  ["9B2 VHH-Fc (Fc fusion) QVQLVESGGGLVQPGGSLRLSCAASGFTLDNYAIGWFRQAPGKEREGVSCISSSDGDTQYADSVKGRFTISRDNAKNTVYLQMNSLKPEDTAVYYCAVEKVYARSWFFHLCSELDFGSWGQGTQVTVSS", 0.32],
  ["1E4 VHH-Fc (Fc fusion) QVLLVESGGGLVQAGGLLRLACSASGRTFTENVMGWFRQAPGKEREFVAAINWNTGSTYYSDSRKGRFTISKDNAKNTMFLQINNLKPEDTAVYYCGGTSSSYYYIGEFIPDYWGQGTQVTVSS", 0.28]
]}
